Entries and their Trimeric HA Binding: RLU values follow.
target: recombinant soluble homotrimeric HA, A/Solomon Islands/3/06 H1N1 (Influenza A virus A/Solomon Islands/3/2006(H1N1)); assay: microarray, transfection SN IgG, trimeric HA; details: remark: other sources report otherwise
Express the result in RLU but write the number alone.

- BINDER: "TCN-523 (5248_A17) (antibody, V domains shown) VH: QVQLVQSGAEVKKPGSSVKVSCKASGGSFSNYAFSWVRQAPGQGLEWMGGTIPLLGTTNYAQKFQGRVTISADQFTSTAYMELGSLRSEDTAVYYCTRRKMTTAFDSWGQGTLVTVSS VL: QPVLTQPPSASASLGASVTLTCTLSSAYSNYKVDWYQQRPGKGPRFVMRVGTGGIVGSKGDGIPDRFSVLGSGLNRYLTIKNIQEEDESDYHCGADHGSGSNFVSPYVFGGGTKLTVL"
  ENDPOINT LABEL: "Trimeric HA Binding: RLU"
  READOUT UNIT: "RLU"
  ENDPOINT RESULT: 37600

Consider now this further binder.
Quick check: Trimeric HA Binding: RLU of TCN-552 (5249_I23) (antibody, V domains shown) VH: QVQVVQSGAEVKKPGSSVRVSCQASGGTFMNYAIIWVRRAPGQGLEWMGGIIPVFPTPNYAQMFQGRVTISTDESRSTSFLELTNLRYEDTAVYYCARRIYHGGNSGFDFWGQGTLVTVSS VL: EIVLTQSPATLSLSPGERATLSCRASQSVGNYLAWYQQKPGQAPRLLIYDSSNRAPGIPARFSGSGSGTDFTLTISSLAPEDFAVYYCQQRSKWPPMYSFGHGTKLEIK ?
48600
